System: M14
test.name: Growth inhibition of human M14 cells at 10 uM after 48 hrs by sulforhodamine B assay
Type: functional
measurement.parameters: M14, 48 h, read-out: GI
property: inhibition of growth at 10 µM (%)

smiles_repr=NS(=O)(=O)c1cnccc1N1CCN(Cc2ccc3c(c2)OCO3)CC1 value_units=% endpoint_result=2
smiles_repr=NS(=O)(=O)c1cnccc1N1CCN(c2ccccc2F)CC1 value_units=% endpoint_result=5
smiles_repr=Cc1nn(-c2ccncc2S(N)(=O)=O)c(C)c1C value_units=% endpoint_result=2
smiles_repr=NS(=O)(=O)c1cnccc1N1CCN(c2ccc(Cl)cc2)CC1 value_units=% endpoint_result=1
smiles_repr=Cc1ccc(C)c(N2CCN(c3ccncc3S(N)(=O)=O)CC2)c1 value_units=% endpoint_result=1
smiles_repr=NS(=O)(=O)c1cnccc1N1CCN(Cc2ccccc2)CC1 value_units=% endpoint_result=2
smiles_repr=NS(=O)(=O)c1cnccc1N1CCN(c2ccc(Cl)c(Cl)c2)CC1 value_units=% endpoint_result=22

----------
Test system: HT-29
test.name: Growth inhibition of human HT-29 cells at 10 uM after 48 hrs by sulforhodamine B assay
Type: functional
measurement.parameters: HT-29, 48 h, read-out: GI
property: inhibition of growth at 10 µM (%)

smiles_repr=CCCCc1c(C)nn(-c2ccncc2S(N)(=O)=O)c1C property="inhibition of growth at 10 µM" endpoint_result=15
smiles_repr=Cc1ccc(C)c(N2CCN(c3ccncc3S(N)(=O)=O)CC2)c1 property="inhibition of growth at 10 µM" endpoint_result=9
smiles_repr=NS(=O)(=O)c1cnccc1N1CCC(Cc2ccccc2)CC1 property="inhibition of growth at 10 µM" endpoint_result=2
smiles_repr=NS(=O)(=O)c1cnccc1N1CCN(c2ccc(Cl)cc2)CC1 property="inhibition of growth at 10 µM" endpoint_result=7
smiles_repr=COc1ccccc1N1CCN(c2ccncc2S(N)(=O)=O)CC1 property="inhibition of growth at 10 µM" endpoint_result=4
smiles_repr=NS(=O)(=O)c1cnccc1N1CCN(c2ccc(Cl)c(Cl)c2)CC1 property="inhibition of growth at 10 µM" endpoint_result=29
smiles_repr=CCc1cc(CC)n(-c2ccncc2S(N)(=O)=O)n1 property="inhibition of growth at 10 µM" endpoint_result=1

----------
Tested on: NCI-H226
test.name: Growth inhibition of human NCI-H226 cells at 10 uM after 48 hrs by sulforhodamine B assay
Assay type: functional
measurement.parameters: NCI-H226, 48 h, read-out: GI
The threshold is inclusive: inhibition of growth at 10 µM of exactly 10% counts as label 1; values below receive label 0.

smiles_repr=NS(=O)(=O)c1cnccc1N1CCN(c2ccc(Cl)cc2)CC1 group_label="label 1"
smiles_repr=NS(=O)(=O)c1cnccc1N1CCN(c2ccc(Cl)c(Cl)c2)CC1 group_label="label 1"
smiles_repr=COc1ccccc1N1CCN(c2ccncc2S(N)(=O)=O)CC1 group_label="label 0"
smiles_repr=Cc1ccc(C)c(N2CCN(c3ccncc3S(N)(=O)=O)CC2)c1 group_label="label 0"
smiles_repr=NS(=O)(=O)c1cnccc1N1CCN(c2ccccn2)CC1 group_label="label 0"
smiles_repr=NS(=O)(=O)c1cnccc1N1CCC(Cc2ccccc2)CC1 group_label="label 1"
smiles_repr=NS(=O)(=O)c1cnccc1N1CCN(Cc2ccccc2)CC1 group_label="label 0"

----------
System: MDA-MB-468
test.name: Growth inhibition of human MDA-MB-468 cells at 10 uM after 48 hrs by sulforhodamine B assay
Format: functional
The source made the active and inactive calls. No cut-off for these calls is given here.
property: growth inhibition (GI)

smiles_repr=CCc1cc(CC)n(-c2ccncc2S(N)(=O)=O)n1 system_tested=MDA-MB-468 endpoint_result=inactive
smiles_repr=NS(=O)(=O)c1cnccc1N1CCN(c2ncccn2)CC1 system_tested=MDA-MB-468 endpoint_result=inactive
smiles_repr=CSc1nc(N)n(-c2ccncc2S(N)(=O)=O)n1 system_tested=MDA-MB-468 endpoint_result=inactive
smiles_repr=NS(=O)(=O)c1cnccc1N1CCN(Cc2ccccc2)CC1 system_tested=MDA-MB-468 endpoint_result=inactive
smiles_repr=NS(=O)(=O)c1cnccc1N1CCN(c2ccccc2)CC1 system_tested=MDA-MB-468 endpoint_result=inactive
smiles_repr=Cc1nn(-c2ccncc2S(N)(=O)=O)c(C)c1C system_tested=MDA-MB-468 endpoint_result=inactive
smiles_repr=NS(=O)(=O)c1cnccc1N1CCN(Cc2ccc3c(c2)OCO3)CC1 system_tested=MDA-MB-468 endpoint_result=inactive
